# test name: in vivo
# measurement conditions: male, SD, rat, plasma, iv, 1 mg/kg
Everything with AUC(0-t) lower than 700 ng·h/mL is criterion not met; everything else, including exactly 700 ng·h/mL, is criterion met.

Cc1nc(C2=CC3CN(C(=O)c4ccc(F)cc4-n4nccn4)CC3C2)nc(C)c1F (centres unmarked) [Compound 2] | criterion met
COc1ccc(C(=O)N2CC3C=C(c4nc(C)cnc4OC)CC3C2)c(-c2ncccn2)c1 (centres unmarked) [Compound 48] | criterion met
Cc1nc(C2=CC3CN(C(=O)c4c(F)cccc4-n4nccn4)CC3C2)nc(C(C)(C)O)c1F (centres unmarked) [Compound 37] | criterion not met
CCOc1ccc(C(=O)N2CC3C=C(c4nc(C)cnc4OC)CC3C2)c(-n2nccn2)c1 (centres unmarked) [Compound 45] | criterion met
COc1nc(C2=CC3CN(C(=O)c4c(F)cccc4-n4nccn4)CC3C2)nc(C)c1F (centres unmarked) [Compound 8] | criterion met
COc1ncc(C)nc1C1=CC2CN(C(=O)c3ccc(F)cc3-n3cccn3)CC2C1 (centres unmarked) [Compound 61] | criterion met
COc1ccc(C(=O)N2CC3C=C(c4nc(C)c(F)c(C)n4)CC3C2)c(-n2nccn2)c1 (centres unmarked) [Compound 5] | criterion met

Could you now look at the following compound, please?
Has COc1ccc(C(=O)N2CC3C=C(c4nc(C)cnc4OC)CC3C2)c(-n2nccn2)c1 (centres unmarked) [Compound 41] a recorded AUC(0-t) greater than or equal to 700 ng·h/mL? criterion not met

---

Listed below: Selectivity values for each entry.
# target of assay: OX2 receptor (Homo sapiens, UniProt O43614)
# Construct: host or cells: CHO-K1
# Sequence (O43614 1-444): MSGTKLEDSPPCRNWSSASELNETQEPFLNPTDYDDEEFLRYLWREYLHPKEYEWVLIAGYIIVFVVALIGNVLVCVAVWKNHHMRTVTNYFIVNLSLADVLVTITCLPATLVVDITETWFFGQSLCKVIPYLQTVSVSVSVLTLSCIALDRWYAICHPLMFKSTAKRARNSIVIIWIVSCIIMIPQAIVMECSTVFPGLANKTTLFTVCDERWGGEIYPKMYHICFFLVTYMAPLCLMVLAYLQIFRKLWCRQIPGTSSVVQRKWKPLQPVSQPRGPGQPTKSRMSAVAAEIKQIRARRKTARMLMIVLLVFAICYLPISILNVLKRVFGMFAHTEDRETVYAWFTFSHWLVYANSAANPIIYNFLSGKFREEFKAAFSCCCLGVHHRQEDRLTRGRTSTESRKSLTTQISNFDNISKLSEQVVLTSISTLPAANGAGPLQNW
# test name: Orexin target function test (Cisbio HTRF IP-one), CHO-K1-OX2 cells, antagonism of EC80 Orexin 2 receptor agonist
# Type: cell-based
# Description: Using Cisbio HTRF IP-one kit to detect the changes in IP-one concentration of orexin receptor (OX1/OX2) signaling pathway by microplate reader, and calculating the IC50 value of the compound to evaluate the antagonistic effect of the compound on OX1 and OX2 receptors. The cells were centrifuged at 1000 rpm for 5 minutes and the supernatant was discarded. 3 mL of PBS was added, and gently blown with a pipette to mix. […]

COc1ncc(C)nc1C1=CC2CN(C(=O)c3ccc(F)cc3-n3nccn3)CC2C1 (stereo not shown) | 133
COc1ccc(C(=O)N2CC3C=C(c4nc(C)cnc4OC)CC3C2)c(-n2nccn2)c1 (stereo not shown) | 87
Cc1nc(C2=CC3CN(C(=O)c4ccc(F)cc4-n4nccn4)CC3C2)nc(C)c1F (stereo not shown) | 128

Field: next compound
What does the data say about its Selectivity? Entry: COc1ncc(C)nc1C1=CC2CN(C(=O)c3c(F)cccc3-n3nccn3)CC2C1 (stereo not shown) 60
